experiment: Metabolic stability in human hepatic microsome; type: in vitro ADME; settings: human, microsomes, pH 7.4, CL NADPH(+)
Positions of bridges follow the written chain, without caps; N, C: chain ends. Non-standard residues stand in square brackets, D forms with d. Residues, ends and D or L forms follow the SMILES beside them. *: point of attachment. NMeL = CN[C@@H](CC(C)C)C(=O)O; NMeV = CN[C@H](C(=O)O)C(C)C; NMeA = CN[C@@H](C)C(=O)O; Piperidide = C1CCN(*)CC1; β3hA = C[C@H](N)CC(=O)O; Sar = CNCC(=O)O
Record form. Attribute: microsomal CLint at 1 uM. Fill in for each entry.
Express your answer in µL/min/mg, writing the number without its unit.

Name the recorded microsomal CLint at 1 uM of the item CC[C@H](C)[C@@H]1NC(=O)[C@H](C)NC(=O)C[C@H](C)NC(=O)[C@H](CC(C)C)NC(=O)[C@H](CC(C)C)NC(=O)[C@H](C(C)C)NC(=O)[C@H](C)N(C)C(=O)[C@H](CC(C)C)NC(=O)CNC(=O)[C@H]([C@@H](C)O)NC(=O)[C@H](CC(C)C)N(C)C(=O)[C@@H]2CCCN2C1=O [DP-808] (cyclo(AIP[NMeL]TGL[NMeA]VLL[β3hA])) in your answer.
33

Name the recorded microsomal CLint at 1 uM of the item CC(C)C[C@@H]1NC(=O)[C@H](CC(C)C)NC(=O)[C@H](C)N(C)C(=O)C[C@@H](C(=O)N2CCCCC2)NC(=O)[C@H](C(C)C)N(C)C(=O)[C@H](CC(C)C)NC(=O)[C@H](Cc2ccccc2)NC(=O)[C@H]([C@@H](C)O)NC(=O)CN(C)C(=O)[C@H](CC(C)C)NC(=O)[C@H](C)NC1=O [DP-111] ([NMeA]LLAL[Sar]TFL[NMeV]D-Piperidide; lactam N-11) in your answer.
17

Name the recorded microsomal CLint at 1 uM of the item CC(C)C[C@@H]1NC(=O)[C@H](C(C)C)N(C)C(=O)[C@H](Cc2ccccc2)NC(=O)CN(C)C(=O)[C@H]([C@@H](C)O)NC(=O)[C@H](C)N(C)C(=O)[C@H](CC(C)C)N(C)C(=O)[C@@H](C(C)C)NC(=O)C[C@@H](C(=O)N2CCCCC2)NC(=O)[C@H](C)NC(=O)[C@H](CC(C)C)N(C)C1=O [DP-143] ([dV][NMeL][NMeA]T[Sar]F[NMeV]L[NMeL]AD-Piperidide; lactam N-11) in your answer.
25
